- Assay comment: Pharmacokinetics of R14 in rats after i.v. and oral dose
- Format: in vivo, Sprague Dawley rats
- Measurement context: male, Sprague Dawley, iv; i.v. 5 mg/kg, rat plasma, n = 3, mean ± SD
- Procedure: This study was carried out in accordance with the recommendation of the Guidelines for the Care and Use of Laboratory Animals (2011) and was in compliance with the ARRIVE guidelines. […] For the intravenous (i.v.) pharmacokinetics of R14, another group of jugular vein cannulated rats received an i.v. administered 5 mg/kg R14 dose. […] Plasma was processed similarly, with aliquots prepared for both R14 quantification and metabolite analysis, and urine collected over 24 h and stored at −80 °C. […]
Recorded endpoint: AUC(0-inf) (ng·h/mL)
Give your result in ng·h/mL as a bare value.

Which value of AUC(0-inf) has been reported for Cc1ccccc1-n1sc2cc(F)ccc2c1=O [Metabolite R14] in the records?
1810

* * *

- Assay comment: Pharmacokinetics of R14 in rats after i.v. and oral dose
- Format: in vivo, Sprague Dawley rats
- Measurement context: male, Sprague Dawley, rat, plasma; oral 50 mg/kg, rats, n = 3, mean ± SD; read-out: CL/F (apparent clearance) (converted)
Recorded endpoint: CL/F (L/h/kg)
Give your result in L/h/kg as a bare value.

Which value of CL/F has been reported for Cc1ccccc1-n1sc2cc(F)ccc2c1=O [Metabolite R14] in the records?
22
